assay: in vivo; parameters: species or system male CD-1 mice; details: male, CD-1, mouse, sc, 5 mg/kg
Bridge positions count the residues as written; N and C are the ends. Square brackets hold non-standard residues; d marks the D form. Peptide text beside a SMILES is read from it. * marks the point of attachment. Lauroyl = CCCCCCCCCCCC(=O)*; Dab = NCC[C@H](N)C(=O)O
PROPERTY_LABEL: level at 4 h (ng/mL)
# output: bare number, implied unit ng/mL

// query Using the record for CCCCCCCCCCCC(=O)NCCCC[C@@H]1NC(=O)[C@H](Cc2ccc(O)cc2)NC(=O)[C@@H]2CSSC[C@H](NC(=O)[C@H](C)NC(=O)[C@H](Cc3c[nH]cn3)NC(=O)[C@H](Cc3ccc(O)cc3)NC(=O)[C@@H]3CCCN3C(=O)[C@H]3CCCN3C(=O)[C@H](CCCCN)NC1=O)C(=O)N[C@@H](CCCNC(=N)N)C(=O)N[C@@H](C)C(=O)N1CCC[C@@H]1C(=O)N[C@@H](CCN)C(=O)N[C@@H](CCCNC(=N)N)C(=O)N[C@@H](Cc1ccc(O)cc1)C(=O)N2 [Ex. 17] (cyclo(YHACRA[dP][Dab]RYCYK(Lauroyl)K[dP]P); disulfide 4-11) , report its level at 4 h.
// result 1410

====

Provide the reported remaining at 24 h, 10 μM of each item.
assay: Plasma stability in human plasma; format: in vitro ADME; settings: human plasma, 37° C., 1440 min; read-out: human pl. cpd left at 1440 min
Bridge positions count the residues as written; N and C are the ends. Square brackets hold non-standard residues; d marks the D form. Peptide text beside a SMILES is read from it. * marks the point of attachment. Gly(decyl) = CCCCCCCCCC[C@H](N)C(=O)O; Myristoyl = CCCCCCCCCCCCCC(=O)*; Lauroyl = CCCCCCCCCCCC(=O)*; Dab = NCC[C@H](N)C(=O)O; X3 = CCCCCCCCCC*
# output: bare number, implied unit %

// query Using the record for CCCCCCCCCC[C@@H]1NC(=O)[C@H](Cc2ccc(O)cc2)NC(=O)[C@@H]2CSSC[C@H](NC(=O)[C@H](Cc3ccc(O)cc3)NC(=O)[C@H](Cc3c[nH]cn3)NC(=O)[C@H](Cc3ccc(O)cc3)NC(=O)[C@@H]3CCCN3C(=O)[C@H]3CCCN3C(=O)[C@H](CCCCN)NC1=O)C(=O)N[C@@H](CCCNC(=N)N)C(=O)N[C@@H](C)C(=O)N1CCC[C@@H]1C(=O)N[C@@H](CCN)C(=O)N[C@@H](CCCNC(=N)N)C(=O)N[C@@H](Cc1ccc(O)cc1)C(=O)N2 [Ex. 8] (cyclo(YHYCRA[dP][Dab]RYCY[Gly(decyl)]K[dP]P); disulfide 4-11) , report its remaining at 24 h, 10 μM.
// result 79

// query Using the record for CCCCCCCCCCCC(=O)NCC[C@@H]1NC(=O)[C@H](Cc2ccc(O)cc2)NC(=O)[C@@H]2CCCN2C(=O)[C@H]2CCCN2C(=O)[C@H](CCCCN)NC(=O)[C@H](CCC(N)=O)NC(=O)[C@H](Cc2ccc(O)cc2)NC(=O)[C@@H]2CSSC[C@H](NC(=O)[C@H](C)NC1=O)C(=O)N[C@@H](CCCNC(=N)N)C(=O)N[C@@H](C)C(=O)N1CCC[C@@H]1C(=O)N[C@@H](CCN)C(=O)N[C@@H](CCCNC(=N)N)C(=O)N[C@@H](Cc1ccc(O)cc1)C(=O)N2 [Ex. 1] (cyclo(Y[Dab](Lauroyl)ACRA[dP][Dab]RYCYQK[dP]P); disulfide 4-11) , report its remaining at 24 h, 10 μM.
// result 87

// query Using the record for CCCCCCCCCCOC[C@@H]1NC(=O)[C@H](Cc2ccc(O)cc2)NC(=O)[C@@H]2CSSC[C@H](NC(=O)[C@H]([C@@H](C)O)NC(=O)[C@H](Cc3c[nH]cn3)NC(=O)[C@H](Cc3ccc(O)cc3)NC(=O)[C@@H]3CCCN3C(=O)[C@H]3CCCN3C(=O)[C@H](CCC(N)=O)NC1=O)C(=O)N[C@@H](CCCNC(=N)N)C(=O)NCC(=O)N1CCC[C@@H]1C(=O)N[C@@H](CCN)C(=O)N[C@@H](CCCNC(=N)N)C(=O)N[C@@H](Cc1ccc(O)cc1)C(=O)N2 [Ex. 30] (cyclo(YHTCRG[dP][Dab]RYCYS(X3)Q[dP]P); disulfide 4-11) , report its remaining at 24 h, 10 μM.
// result 54

// query Using the record for CCCCCCCCCCCCCC(=O)NCCCC[C@@H]1NC(=O)[C@H](Cc2ccc(O)cc2)NC(=O)[C@@H]2CSSC[C@H](NC(=O)[C@H](C)NC(=O)[C@H](Cc3c[nH]cn3)NC(=O)[C@H](Cc3ccc(O)cc3)NC(=O)[C@@H]3CCCN3C(=O)[C@H]3CCCN3C(=O)[C@H](CCCCN)NC1=O)C(=O)N[C@@H](CCCNC(=N)N)C(=O)N[C@@H](C)C(=O)N1CCC[C@@H]1C(=O)N[C@@H](CCN)C(=O)N[C@@H](CCCNC(=N)N)C(=O)N[C@@H](Cc1ccc(O)cc1)C(=O)N2 [Ex. 19] (cyclo(YHACRA[dP][Dab]RYCYK(Myristoyl)K[dP]P); disulfide 4-11) , report its remaining at 24 h, 10 μM.
// result 99

Where do the numbers come from? From patent US8716242B2.
